system: Sinapis alba; test: Example B: post-emergence herbicidal application, pot test; format: in vivo; conditions: 4000 g/ha, 576 h
parameter.measured: ACTIVITE DE POST-LEVEE SIN

O=C(O)c1cccnc1-c1n[nH]c(-c2sc(Cl)c(Cl)c2Cl)n1 [compound 44]; 4 (10 à 30)
O=C(O)c1cccnc1-c1n[nH]c(-c2cc(Cl)cc(Cl)c2)n1 [compound 50]; 0 (90 à 100)
CN(C)S(=O)(=O)n1nc(-c2ccc(Cl)cc2Cl)nc1-c1ncccc1C(=O)O [compound 3]; 2 (50 à 70)
CN(C)S(=O)(=O)n1nc(-c2cccc(Cl)c2)nc1-c1ncccc1C(=O)O [compound 9]; 4 (10 à 30)

Which ACTIVITE DE POST-LEVEE SIN reading was recorded for the compound O=C(O)c1cccnc1-c1n[nH]c(Cc2ccccc2)n1 [compound 45] ?
2 (50 à 70)

I have this compound here, CN(C)S(=O)(=O)n1c(-c2ncccc2C(=O)O)nc2ccccc21 [compound 121] , and I need its recorded ACTIVITE DE POST-LEVEE SIN.
5 (O à 10)

What value of ACTIVITE DE POST-LEVEE SIN has been recorded for this entry: O=C(O)c1cccnc1-c1n[nH]c(C=Cc2ccccc2)n1 [compound 67]
2 (50 à 70)

Which measured ACTIVITE DE POST-LEVEE SIN value corresponds to O=C(O)c1cccnc1-c1n[nH]c(-c2cc(Cl)ccc2Cl)n1 [compound 73] ?
3 (30 à 50)

Query: ACTIVITE DE POST-LEVEE SIN; subject: COC(=O)c1cccnc1-c1nc(-c2ccccc2)nn1S(=O)(=O)c1ccccc1Cl [compound 24]
3 (30 à 50)

---

System: Ipomea purpurea
Assay: Example B: post-emergence herbicidal application, pot test
Assay type: in vivo
Conditions: 4000 g/ha, 576 h
Source text: Dans des pots de 7 x 7 x 8 cm remplis de terre agricole légère, on sème un nombre de graines déterminé en fonction de l'espèce végétale et de la grosseur de la graine. […] Les pots sont alors traités par pulvérisation de bouillie en quantité correspondant à une dose volumique d'application de 500 l/ha et contenant la matière active à la concentration désirée. […]
Entries and their measured ACTIVITE DE POST-LEVEE IPO follow.

O=C(O)c1cccnc1-c1n[nH]c(-c2sc(Cl)c(Cl)c2Cl)n1 [compound 44]; 3 (30 à 50)
CN(C)S(=O)(=O)n1nc(-c2ccccc2)nc1-c1ncccc1C(=O)O [compound 6]; 4 (10 à 30)
O=C(O)c1cccnc1-c1n[nH]c(-c2cccc(Cl)c2)n1 [compound 48]; 3 (30 à 50)

Next compound, please.
Fill in: ACTIVITE DE POST-LEVEE IPO of O=C(O)c1cccnc1-c1n[nH]c(Cc2ccccc2)n1 [compound 45] is ___
3 (30 à 50)

---

test system: Ipomea purpurea; test: Example B: post-emergence herbicidal application, pot test; format: in vivo; settings: 4000 g/ha, 576 h
Below: a set of entries, each annotated with reported ACTIVITE DE POST-LEVEE IPO.

Cc1ccccc1-c1nc(-c2ncccc2C(=O)O)n[nH]1; 0 (90 à 100)
O=C(O)c1cccnc1-c1n[nH]c(-c2cc(Cl)ccc2Cl)n1; 3 (30 à 50)
CN(C)S(=O)(=O)n1nc(-c2ccc(Cl)cc2Cl)nc1-c1ncccc1C(=O)O; 2 (50 à 70)

Suppose we examine the compound "O=C(O)c1cccnc1-c1nc(-c2ccccc2)nn1S(=O)(=O)N1CCCC1" ; what ACTIVITE DE POST-LEVEE IPO value has been reported?
2 (50 à 70)

What value of measured ACTIVITE DE POST-LEVEE IPO is listed for CN(C)S(=O)(=O)n1nc(-c2ccccc2)nc1-c1ncccc1C(=O)O [compound 1] ?
3 (30 à 50)
